# method.description: Plasma stability assay
# condition.label: male, SD, rat
Please go through the items and note down their half-life.

Name the reported half-life value associated with the compound Clc1ccc(COC(Cn2ccnc2)c2ccc(Cl)cc2Cl)c(Cl)c1 (stereo not drawn) > 6 h

Name the reported half-life value associated with the compound OC(Cn1cncn1)(Cn1cncn1)c1ccc(F)cc1F [Fluconazole, fluconazole, reference compound] > 6 h

Name the reported half-life value associated with the compound O=C(Nc1ccc(F)cc1F)c1ccc(COC(Cn2ccnc2)c2ccc(Cl)cc2Cl)cc1 (stereo not drawn) > 6 h

====

# System: C. neo
# method.description: In vitro antifungal assay
# Format: cell-based
# condition.label: Cryptococcus neoformans, read-out: MIC80 C. neo
quantity.kind: MIC80 (µg/mL)
All answers are understood in µg/mL, so give the number only.

Name the reported MIC80 value associated with the molecule O=C(Nc1ccc(C(F)(F)F)cc1)c1ccc(COC(Cn2ccnc2)c2ccc(Cl)cc2Cl)cc1 (stereo not shown) 0.125

Name the reported MIC80 value associated with the molecule O=C(Nc1cccc(F)c1)c1ccc(COC(Cn2ccnc2)c2ccc(Cl)cc2Cl)cc1 (stereo not shown) 0.125

Name the reported MIC80 value associated with the molecule O=C(Nc1ccc(F)cc1F)c1ccc(COC(Cn2ccnc2)c2ccc(Cl)cc2Cl)cc1 (stereo not shown) 0.06

Name the reported MIC80 value associated with the molecule O=C(Nc1cccc(Br)c1)c1ccc(COC(Cn2ccnc2)c2ccc(Cl)cc2Cl)cc1 (stereo not shown) 0.125

Name the reported MIC80 value associated with the molecule O=C(Nc1cccc2ccccc12)c1ccc(COC(Cn2ccnc2)c2ccc(Cl)cc2Cl)cc1 (stereo not shown) 64

Name the reported MIC80 value associated with the molecule O=C(Nc1ccccc1)c1ccc(COC(Cn2ccnc2)c2ccc(Cl)cc2Cl)cc1 (stereo not shown) 0.25

Name the reported MIC80 value associated with the molecule O=C(Nc1ccc2[nH]ccc2c1)c1ccc(COC(Cn2ccnc2)c2ccc(Cl)cc2Cl)cc1 (stereo not shown) 128
